- system: recombinant 11β-HSD1 enzyme (Homo sapiens (Human))
- Sequence (P28845 whole entry): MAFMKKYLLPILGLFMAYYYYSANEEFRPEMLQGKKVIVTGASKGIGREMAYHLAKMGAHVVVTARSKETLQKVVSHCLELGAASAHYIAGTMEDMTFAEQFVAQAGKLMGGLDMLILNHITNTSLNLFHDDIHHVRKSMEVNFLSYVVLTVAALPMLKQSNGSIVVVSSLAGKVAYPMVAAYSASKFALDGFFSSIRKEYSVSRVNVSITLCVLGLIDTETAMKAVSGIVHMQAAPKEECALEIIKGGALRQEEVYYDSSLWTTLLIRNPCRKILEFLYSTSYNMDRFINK
- testName: 11β-HSD1 oxidase activity (HTRF Cortisol Kit)
- Assay type: biochemical
- assayConditions: remaining activity at 100 nM compound
- Description: Determination of 11β-HSD1 Oxidase Activity The Cortisol Kit (Cisbio) product was used for that purpose. […] Initially, the enzyme concentration to be used was determined. […] Subsequently, the fluorescence was determined at 665 and 620 nm. An HRTF plate was again prepared, where the reaction buffer, the recombinant 11β-HSD1 enzyme and the compound were added in each well in a 3:1:1 ratio, respectively. […] They were then incubated at room temperature for 1 hour to finally read the fluorescence at 665 and 620 nm.
parameter: 11b-HSD1 oxidase (activ rem %) 100 nM
Give the quantity in %, number only.

Sample records with 11b-HSD1 oxidase (activ rem %) 100 nM:
> print(dat)
                                   compound  number
1  COc1ccc(CCc2nc(C34CC5CC(CC(C5)C3)C4)no2)cc1 [BD-32]   104.1
2  Cc1cccc(CCc2nc(C34CC5CC(CC(C5)C3)C4)no2)c1 [BD-40]    92.1
3  Fc1ccc(CCc2nc(C34CC5CC(CC(C5)C3)C4)no2)cc1 [BD-34]   109.0
4  Brc1ccc(CCc2nc(C34CC5CC(CC(C5)C3)C4)no2)cc1 [BD-35]    91.3
5  Oc1ccc(CCc2nc(C34CC5CC(CC(C5)C3)C4)no2)cc1 [BD-37]   109.6

Moving on to another compound below.
Which 11b-HSD1 oxidase (activ rem %) 100 nM is listed for Clc1ccc(CCc2nc(C34CC5CC(CC(C5)C3)C4)no2)cc1 [BD-33] ?
107.0
